- procedure-text: qHTS for Inhibitors of human tyrosyl-DNA phosphodiesterase 1 (TDP1): qHTS in cells in absence of CPT; also: nearly all actives have a fitted effect of over 55% in size
- setup-conditions: DT40 Tdp1-/- hTDP1 cells, no CPT, ATP luminescence, 48 h
- Description: Human tyrosyl-DNA phosphodiesterase 1 (TDP1) is a novel repair gene, and we propose to use it as a new target for anticancer drug development. […] For the primary screen, Tdp1-/-;hTDP1 cells will be exposed to small molecules in the presence or absence of CPT, and their growth kinetics will be evaluated after 48 hours by measuring ATP activity. […] The hit compounds will then be evaluated in the presence or absence of CPT using Tdp1-/- cells. […]
Hit rate of the full screen: of about 420,000 compounds, about 64,000 (15%) were called active. Inconclusive results (about 27%) are left out. Calls follow the shape of the dose curve; as a rule, active = well fitted inhibition curve with a large enough effect; inconclusive = small, poorly fitted or top-dose-only effect; inactive = flat fitted curve, though single readings scatter. A selection follows.
Classes used: label 1 (active), label 0 (inactive)

{"compound": "COc1cccc(/C=C/C(=O)Nc2ccc3c(c2)OCCO3)c1", "class-name": "label 0"}
{"compound": "CC1CCN(C(=O)/C(=C\\c2ccccc2F)NC(=O)c2ccccc2)CC1", "class-name": "label 0"}
{"compound": "CCCC(CCC(=O)OC)(C(=O)OCC)c1csc(N)n1 (configuration not stated)", "class-name": "label 0"}
{"compound": "COc1cc(C#Cc2ccc3cc(CCCO)oc(=O)c3c2)cc(OC)c1", "class-name": "label 1"}
{"compound": "CCCCCCCCCCCCC(NC(C)=O)(C(=O)OCC)C(=O)OCC", "class-name": "label 1"}
{"compound": "CCOC(=O)c1cccc(NC(=O)c2cc(CN3CCCC3)on2)c1", "class-name": "label 0"}
{"compound": "CC(C)(C)n1nnnc1C(c1ccc2ncccc2c1)N1CCSCC1 (configuration not stated)", "class-name": "label 0"}
{"compound": "CCCCNC(=O)C[C@@H]1C[C@@]2(C(=O)OCC)CCC=C2N(Cc2ccco2)C1=O", "class-name": "label 0"}
{"compound": "COc1ccc(OC)c(/C=C/C(=O)OCC(=O)Nc2ccc3c(c2)OCCO3)c1", "class-name": "label 1"}
{"compound": "O=C(NNS(=O)(=O)c1ccc(F)cc1)C1CCCCC1", "class-name": "label 0"}
{"compound": "O=C(CCn1c(SCC(=O)c2ccccc2)nc2ccccc2c1=O)NCc1ccc(F)cc1", "class-name": "label 0"}
{"compound": "O=C(COC(=O)C12CC3CC(CC(C3)C1)C2)NCc1ccco1", "class-name": "label 0"}
{"compound": "COc1cccc(N(CC(=O)NC2CCCC2)C(=O)Cn2nnc(-c3ccc(C)cc3)n2)c1", "class-name": "label 0"}
{"compound": "COc1ccccc1/C=C/C=N/NC(=O)CN1CCN(Cc2ccccc2)CC1", "class-name": "label 0"}
{"compound": "CCCCNC(=O)C[C@@H]1C[C@@]2(C(=O)OCC)CCC=C2N(Cc2cccc3ccccc23)C1=O", "class-name": "label 1"}
{"compound": "NC(=O)C1(N2CCCC2)CCN(Cc2ccccc2)CC1", "class-name": "label 0"}
{"compound": "COc1ccc(OC)c2[nH]c(=O)c(CCNC(=O)C(=O)c3c[nH]c4ccccc34)cc12", "class-name": "label 1"}
{"compound": "COc1ccccc1CNC(=O)CCCN1C(=O)NC2(CCCC2)C1=O", "class-name": "label 0"}
{"compound": "C#CCOCCOCCOCCNc1nc(N2CCN(C(=O)[C@H](CCC(=O)O)n3cc(CN)nn3)CC2)nc(N2CCN(C(=O)[C@H](CCC(=O)O)n3cc(CN)nn3)CC2)n1", "class-name": "label 0"}
{"compound": "Cc1cc(C)cc(NC(=O)N(C)Cc2ccccc2)c1", "class-name": "label 0"}
{"compound": "CCCCCCCCN1C(=O)[C@H](CC(=O)NCc2cccc3ccccc23)C[C@@]2(C(=O)OC)CCCCC=C12", "class-name": "label 1"}
{"compound": "COc1ccccc1OCCCC(=O)Nc1ccc2c(c1)OCCO2", "class-name": "label 0"}
{"compound": "CCCCOc1ccc(NC(=O)[C@@H]2CCCN2C(=O)C2CCN(S(=O)(=O)c3ccc(C)cc3)CC2)cc1", "class-name": "label 0"}
{"compound": "CC[C@@H](C)[C@H](NC(=O)CCc1c(C)c2cc3c4c(oc3c(C)c2oc1=O)CCCC4)C(=O)O", "class-name": "label 0"}
{"compound": "C=CCOc1c2ccc(C(=O)N(CC)c3ccc(OC)cc3)cc2nn1C", "class-name": "label 0"}
{"compound": "Cc1cccc(NC(=O)c2cccc(C(=O)Nc3cccc(C)c3C)n2)c1C", "class-name": "label 0"}
{"compound": "CCN(C(=O)C1CCCN(c2nc(-c3ccc(OC)cc3)no2)C1)c1ccc(OC)cc1 (configuration not stated)", "class-name": "label 1"}
{"compound": "COc1cc(C(=O)Nc2ccc(OCc3cc(=O)n4cc(C)sc4n3)cc2)cc(OC)c1OC", "class-name": "label 0"}
{"compound": "O=C(Nc1ccc(F)c([N+](=O)[O-])c1)C1CCCO1 (configuration not stated)", "class-name": "label 0"}
{"compound": "CCOC(=O)[C@]12CCC=C1N(Cc1ccco1)C(=O)[C@H](CC(=O)NCc1cccc(C(F)(F)F)c1)C2", "class-name": "label 1"}
{"compound": "O=C(COC(=O)c1ccc(O)cc1O)NNC(=O)c1cccs1", "class-name": "label 0"}
{"compound": "Cc1ccc(S(=O)(=O)N2CCC(C(=O)N[C@@H](C)C(=O)NCc3ccccc3)CC2)cc1", "class-name": "label 0"}
{"compound": "CC(=O)Nc1ccc(S(=O)(=O)NC(C)C(=O)OCC(=O)NC2CCCC2)cc1 (configuration not stated)", "class-name": "label 0"}
{"compound": "CN(C)CCCOc1ccc(-c2ccc3nccn3c2)cn1", "class-name": "label 0"}
{"compound": "CCCNC(=O)c1cc(C2CCCN(C(=O)c3ccc4c(c3)CCO4)C2)on1 (configuration not stated)", "class-name": "label 0"}
{"compound": "COc1ccccc1C(=O)Nc1ccc(Nc2ccccc2)cc1", "class-name": "label 0"}
{"compound": "O=C(/C=C/c1ccccc1[N+](=O)[O-])OCC(=O)N1CCCC1", "class-name": "label 0"}
{"compound": "CCc1ccc(NC(=O)C(C)OC(=O)/C=C/c2cccc([N+](=O)[O-])c2)cc1 (configuration not stated)", "class-name": "label 0"}
{"compound": "S=C(c1ccccc1)N1CCCC1", "class-name": "label 0"}
{"compound": "O=c1[nH]n2c(=O)c3c([nH]c2c1N=Nc1ccccc1)CCC3", "class-name": "label 0"}
{"compound": "CN(CC(=O)O)C(=O)c1ccccc1", "class-name": "label 0"}
{"compound": "CCc1ccc(C(=O)N2CCN(S(=O)(=O)c3sc(C(=O)O)c(C)c3C(=O)O)CC2)cc1", "class-name": "label 0"}
